measurement.description: MTT cell viability assay of RGC-5 cells subjected to oxygen glucose deprivation (OGD)
Assay type: cell-based, mouse
stated.conditions: mouse, RGC-5 cells subjected to oxygen glucose deprivation (OGD), 10 μM moscatilin pre-OGD; cytotoxic effect; n=4
assay.endpoint: viability at 10 μM (%)
Could you give me the number in %? Just the number is fine.

Request: Value lookup for viability at 10 μM; key = COc1cc(CCc2cc(OC)c(O)c(OC)c2)ccc1O [moscatilin]
Response: 15.4
